target: human recombinant D2 receptor (Homo sapiens (Human)); experiment: Test of binding inhibition for dopamine D2 receptor; details: Jump-In HEK cell membranes, 1.2 nM [3H]-Methylspiperone, 120 min at 25° C.; read-out: hD2_Ki
Sequence (P14416 whole entry): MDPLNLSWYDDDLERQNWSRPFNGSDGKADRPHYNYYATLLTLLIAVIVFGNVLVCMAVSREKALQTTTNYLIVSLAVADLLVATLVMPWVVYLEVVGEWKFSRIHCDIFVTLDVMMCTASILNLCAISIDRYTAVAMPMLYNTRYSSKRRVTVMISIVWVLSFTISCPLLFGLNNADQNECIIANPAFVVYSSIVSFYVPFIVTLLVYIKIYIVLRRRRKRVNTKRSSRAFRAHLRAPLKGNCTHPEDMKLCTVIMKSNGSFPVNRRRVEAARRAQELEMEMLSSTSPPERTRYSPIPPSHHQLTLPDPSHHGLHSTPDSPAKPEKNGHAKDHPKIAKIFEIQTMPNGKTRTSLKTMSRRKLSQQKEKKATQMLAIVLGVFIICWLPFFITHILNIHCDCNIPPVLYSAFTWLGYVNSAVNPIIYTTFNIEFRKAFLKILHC
// NB: equality with 300 nM counts as criterion not met; only Ki strictly below is criterion met

Input line: Given the entry CCC(F)(F)c1conc1C1CCN(CC[C@H]2CC[C@H](NC(=O)Cc3nnc(C)s3)CC2)CC1 , would its reported Ki be below 300 nM?
Output line: criterion met

Input line: Threshold test, Ki < 300 nM: O=C(N[C@H]1CC[C@H](CCN2CCC(n3nccc3-c3ccccc3)CC2)CC1)c1cccc2ncccc12
Output line: criterion not met

Input line: hey, is Ki for Cn1cc2c(C(=O)N[C@H]3CC[C@H](CCN4CCC(c5nocc5C(F)(F)C5CC5)CC4)CC3)cccc2n1 lower than 300 nM or not?
Output line: criterion met

Input line: Please let me know if CCc1cc([C@]23C[C@H]2CN(CC[C@H]2CC[C@H](NC(=O)c4cccn5nccc45)CC2)C3)no1 shows Ki below 300 nM.
Output line: criterion met

Input line: Confirm or reject: Ki of O=C(N[C@H]1CC[C@H](CCN2CCC(c3nocc3-c3cccc(F)c3)CC2)CC1)c1cccc2ncccc12 lies strictly below 300 nM
Output line: criterion met

Input line: I wonder whether Cc1ncc(CC(=O)N[C@H]2CC[C@H](CCN3CCC(c4nocc4CC4CC4)CC3)CC2)s1 has Ki below 300 nM. Can you tell?
Output line: criterion not met

Input line: Consider CCc1cc([C@]23C[C@H]2CN(CC[C@H]2CC[C@H](NC(=O)Cc4ncc(C)o4)CC2)C3)no1 . Does its Ki lie strictly below 300 nM?
Output line: criterion not met

Input line: Lab log: compare recorded Ki with 300 nM; is it strictly lower for CCc1cc([C@]23C[C@H]2CN(CC[C@H]2CC[C@H](NC(=O)Cc4cnn(C)c4)CC2)C3)no1 ?
Output line: criterion not met

Input line: State whether 300 nM exceeds Ki recorded for CCc1cc([C@]23C[C@H]2CN(CC[C@H]2CC[C@H](NC(=O)c4cccc5nn(C)cc45)CC2)C3)no1 .
Output line: criterion met

Input line: Take the compound CCc1cc([C@]23C[C@H]2CN(CC[C@H]2CC[C@H](NC(=O)Cc4cnc(C)o4)CC2)C3)no1 and say whether its Ki is less than 300 nM.
Output line: criterion not met

Input line: # TODO verify Ki < 300 nM strictly for this compound: Cc1cnc(CC(=O)N[C@H]2CC[C@H](CCN3C[C@@H]4C[C@]4(c4cc(C(C)(F)F)on4)C3)CC2)o1
Output line: criterion not met

Input line: Field: below-cutoff. Rule: recorded Ki strictly less than 300 nM. Subject: Cc1ncc(CC(=O)N[C@H]2CC[C@H](CCN3CCC(c4nscc4C(C)(F)F)CC3)CC2)s1
Output line: criterion not met

Input line: Ki strictly < 300 nM for this compound? CCc1cc([C@]23C[C@H]2CN(CC[C@H]2CC[C@H](NC(=O)Cc4nnc(C)s4)CC2)C3)no1
Output line: criterion not met
